molecular target: hCIS-SH2-BC complex (ternary complex of human GST-CIS-SH2 construct, residues 66-258 with PEST region 174-202 … (UniProt Q9NSE2 66-258; Q15370 1-118; P83940 17-112); experiment: ITC
Non-standard residues stand in square brackets, D forms with d. No end group written: not given here. pY = N[C@@H](Cc1ccc(OP(=O)(O)O)cc1)C(=O)O
Provide the recorded pKd for the entries that follow.
Scale: negative log10 of molar concentration, which is what pKd denotes.

Bench note: what pKd did YDP[pY]SEEDPDEG [IL-2Rβ cytoplasmic domain phosphopeptide (Tyr361 phosphorylated)] show? 5.82

Moving on to CQV[pY]FTYDPYSE [IL-2Rβ cytoplasmic domain phosphopeptide (Tyr355 phosphorylated)] 6.03

And then DDA[pY]CTFPSRDD [IL-2Rβ cytoplasmic domain phosphopeptide (Tyr392 phosphorylated)] , what is it? 5.74

Origin of measurements: patent US20180298101A1
